tgt: Tyrosine-protein kinase Fer (Homo sapiens, UniProt P16591)
Sequence (P16591 whole entry): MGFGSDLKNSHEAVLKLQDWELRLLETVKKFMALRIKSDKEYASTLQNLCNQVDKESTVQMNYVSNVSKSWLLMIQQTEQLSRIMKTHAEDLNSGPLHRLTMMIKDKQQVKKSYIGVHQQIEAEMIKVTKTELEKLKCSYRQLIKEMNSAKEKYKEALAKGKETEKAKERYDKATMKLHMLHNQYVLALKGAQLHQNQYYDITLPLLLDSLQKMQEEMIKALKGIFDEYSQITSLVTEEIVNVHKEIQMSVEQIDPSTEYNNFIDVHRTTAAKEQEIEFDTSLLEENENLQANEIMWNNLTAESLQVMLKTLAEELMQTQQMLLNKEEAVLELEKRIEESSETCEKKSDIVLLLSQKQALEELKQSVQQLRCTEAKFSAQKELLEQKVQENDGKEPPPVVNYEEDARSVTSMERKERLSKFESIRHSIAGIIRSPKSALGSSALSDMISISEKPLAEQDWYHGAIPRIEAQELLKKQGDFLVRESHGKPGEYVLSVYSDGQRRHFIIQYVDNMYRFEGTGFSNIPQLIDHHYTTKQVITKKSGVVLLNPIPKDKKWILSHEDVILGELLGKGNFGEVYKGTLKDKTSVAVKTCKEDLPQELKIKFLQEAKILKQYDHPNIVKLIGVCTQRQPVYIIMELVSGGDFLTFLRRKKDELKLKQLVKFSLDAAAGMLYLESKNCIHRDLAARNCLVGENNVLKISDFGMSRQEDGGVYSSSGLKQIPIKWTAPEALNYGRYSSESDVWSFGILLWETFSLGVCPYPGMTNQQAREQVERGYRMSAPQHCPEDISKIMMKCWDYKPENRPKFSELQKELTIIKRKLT
procedure_summary: Inhibition of FER in human HeLa cells lysate pre incubated for 15 mins followed by ATP acyl phosphate probe addition and measured after 10 mins by LC-MS/MS analysis
pIC50: −log10 of the molar value.
metric: pIC50

>>> result("CCOc1cc(N2CCC(O)CC2)ccc1Nc1ncc2c(n1)N(C)c1ccccc1C(=O)N2C")
"< 4.30"

###

tgt: UniProtKB Q00535
Sequence (Q00535 whole entry): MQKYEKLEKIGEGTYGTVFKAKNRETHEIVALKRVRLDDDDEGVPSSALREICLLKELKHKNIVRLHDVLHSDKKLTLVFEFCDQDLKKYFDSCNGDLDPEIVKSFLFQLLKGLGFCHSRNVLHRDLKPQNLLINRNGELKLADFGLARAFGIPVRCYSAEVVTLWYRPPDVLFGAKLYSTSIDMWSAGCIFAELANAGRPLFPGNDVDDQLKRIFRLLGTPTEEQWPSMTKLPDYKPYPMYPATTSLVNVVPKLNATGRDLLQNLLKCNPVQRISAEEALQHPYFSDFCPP
procedure_summary: Inhibition of CDK5 in human HeLa cells lysate pre incubated for 15 mins followed by ATP acyl phosphate probe addition and measured after 10 mins by LC-MS/MS analysis
Assay type: subcellular
pIC50: −log10 of the molar value.
metric: pIC50

>>> result("CCOc1cc(N2CCC(O)CC2)ccc1Nc1ncc2c(n1)N(C)c1ccccc1C(=O)N2C")
"< 4.30"
